Reference source for all entries: patent US9066947B2

Test system: PC-3 prostate cancer cells
Assay: Cell proliferation assay (trypan blue viable cell count) and IC50 determination
Format: cell-based, human
Conditions: PC-3 cells, 48 hours
Entries and their concentration from which statistically significant cell growth inhibition started
test_readout: concentration from which statistically significant cell growth inhibition started

compound="CN1CC(=O)N2[C@H](c3c[nH]c4ccccc34)c3cc4c(cc3C[C@H]2C1=O)OCO4 [Substance X]" target_of_assay="PC-3 prostate cancer cells" endpoint_result="5 µM"
compound="CN1CC(=O)N2[C@H](c3cn(C)c4ccccc34)c3cc4c(cc3C[C@H]2C1=O)OCO4 [Analogue 4]" target_of_assay="PC-3 prostate cancer cells" endpoint_result="10 µM"
compound="CN1CC(=O)N2[C@H](c3c[nH]c4c3ccc3ccccc34)c3cc4c(cc3C[C@H]2C1=O)OCO4 [Analogue 3]" target_of_assay="PC-3 prostate cancer cells" endpoint_result="5 µM"
compound="COc1ccc2[nH]cc([C@@H]3c4cc5c(cc4C[C@H]4C(=O)N(C)CC(=O)N34)OCO5)c2c1 [Analogue 2]" target_of_assay="PC-3 prostate cancer cells" endpoint_result="5 µM"
